Recorded values, source paper PMC9684503.

Target: rat VMAT2-His (Rattus norvegicus, UniProt Q01827)
Construct: The ORF of rat VMAT2 was subcloned into a pFastBac vector; His; made in house; host or cells: Sf9 insect cells (baculovirus)
Sequence (Q01827 whole entry): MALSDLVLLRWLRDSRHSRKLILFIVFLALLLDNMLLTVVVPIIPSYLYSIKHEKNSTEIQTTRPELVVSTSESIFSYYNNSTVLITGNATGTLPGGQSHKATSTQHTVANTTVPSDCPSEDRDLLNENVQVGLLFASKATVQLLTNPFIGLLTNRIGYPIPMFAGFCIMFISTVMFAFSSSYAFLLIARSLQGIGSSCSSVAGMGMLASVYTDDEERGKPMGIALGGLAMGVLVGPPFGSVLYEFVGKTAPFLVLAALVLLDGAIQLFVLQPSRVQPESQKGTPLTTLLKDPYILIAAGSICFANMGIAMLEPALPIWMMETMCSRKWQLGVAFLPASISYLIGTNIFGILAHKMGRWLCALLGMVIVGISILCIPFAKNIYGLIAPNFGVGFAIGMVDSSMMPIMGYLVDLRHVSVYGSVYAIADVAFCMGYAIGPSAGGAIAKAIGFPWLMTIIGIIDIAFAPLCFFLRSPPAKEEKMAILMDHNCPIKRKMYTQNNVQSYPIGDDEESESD
Test: Differential scanning fluorimetry (DSF) with CPM dye: change of melting temperature of purified VMAT2
Format: binding
Conditions: Table S2 dose response, compound 90 µM
MEASUREMENT_LABEL: ΔTm

Study these solved cases before continuing.
COMPOUND	ΔTm
CCCCCCC[N+](CC)(CC)CCCCc1ccc(Cl)cc1.Cc1ccc(S(=O)(=O)[O-])cc1 [Clofilium tosylate]	-0,36 oC
CCSc1ccc2c(c1)N(CCCN1CCN(C)CC1)c1ccccc1S2.O=C(O)CC(O)C(=O)O.O=C(O)CC(O)C(=O)O [Thiethylperazine dimalate]	-2,15 oC

Request: For the compound shown here, CC(C(O)c1ccc(O)cc1)N1CCC(Cc2ccccc2)CC1.CC(C(O)c1ccc(O)cc1)N1CCC(Cc2ccccc2)CC1.O=C(O)C(O)C(O)C(=O)O (stereo not shown) [Ifenprodil tartrate] , give the reported ΔTm.
Result: -0,04 oC

Request: For the compound shown here, Cl.Cl.OCCN1CCN(CC/C=C2/c3ccccc3Sc3ccc(Cl)cc32)CC1 [Zuclopenthixol dihydrochloride] , give the reported ΔTm.
Result: -0,79 oC

###

Target: rat VMAT2-His (Rattus norvegicus, UniProt Q01827)
Construct: The ORF of rat VMAT2 was subcloned into a pFastBac vector; His; made in house; host or cells: Sf9 insect cells (baculovirus)
Test: Differential scanning fluorimetry (DSF) with CPM dye: change of melting temperature of purified VMAT2
Format: binding
Settings: Table S2 dose response, compound 0,12 µM; read-out: ΔTm
Counter-ions that a name gives are not always drawn.
MEASUREMENT_LABEL: ΔTm at 12 µM (°C)
Report the value in °C with no unit label.

COMPOUND	MEASURED_TARGET	ΔTm at 12 µM (°C)
C=CCc1ccccc1OCC(O)CNC(C)C (centres unmarked) [Alprenolol hydrochloride]	rat VMAT2-His (Rattus norvegicus, UniProt Q01827)	-0.11
CC(C)NCC(O)COc1ccc(CCOCC2CC2)cc1 (centres unmarked) [Betaxolol, Betaxolol hydrochloride]	rat VMAT2-His (Rattus norvegicus, UniProt Q01827)	-0.32
COc1ccc(CN2CCN(C(c3ccc(F)cc3)c3ccc(F)cc3)CC2)c(OC)c1OC [Lomerizine, Lomerizine hydrochloride]	rat VMAT2-His (Rattus norvegicus, UniProt Q01827)	-0.81

Request: Any idea what ΔTm at 12 µM came out for OC(c1cc(C(F)(F)F)nc2c(C(F)(F)F)cccc12)C1CCCCN1 (centres unmarked) [Mefloquine hydrochloride] on rat VMAT2-His (Rattus norvegicus, UniProt Q01827)?
Result: -0.02

Request: Any idea what ΔTm at 12 µM came out for OCc1cc(C(O)CNCCCCCCOCCCCc2ccccc2)ccc1O (centres unmarked) on rat VMAT2-His (Rattus norvegicus, UniProt Q01827)?
Result: 5.78

Request: Any idea what ΔTm at 12 µM came out for O=C1Cc2cc(CCN3CCN(c4nsc5ccccc45)CC3)c(Cl)cc2N1 [Ziprasidone, Ziprasidone Hydrochloride] on rat VMAT2-His (Rattus norvegicus, UniProt Q01827)?
Result: 0.41

Request: Any idea what ΔTm at 12 µM came out for CCCc1nn(C)c2c(=O)[nH]c(-c3cc(S(=O)(=O)N4CCN(C)CC4)ccc3OCC)nc12 on rat VMAT2-His (Rattus norvegicus, UniProt Q01827)?
Result: 0.43

Request: Any idea what ΔTm at 12 µM came out for Cc1cccc(C)c1NC(=O)CN1CCN(CCCC(c2ccc(F)cc2)c2ccc(F)cc2)CC1 on rat VMAT2-His (Rattus norvegicus, UniProt Q01827)?
Result: 0.23

Request: Any idea what ΔTm at 12 µM came out for CCCCC(CC)CN1CN(CC(CC)CCCC)CC(C)(N)C1 (centres unmarked) on rat VMAT2-His (Rattus norvegicus, UniProt Q01827)?
Result: -0.09

Request: Any idea what ΔTm at 12 µM came out for CCCC(=O)Nc1ccc(OCC(O)CNC(C)C)c(C(C)=O)c1 (centres unmarked) [Acebutolol, Acebutolol hydrochloride] on rat VMAT2-His (Rattus norvegicus, UniProt Q01827)?
Result: 0.2

Request: Any idea what ΔTm at 12 µM came out for OC(CCN1CCCCC1)(c1ccccc1)C1CC2C=CC1C2 (centres unmarked) [Biperiden, Biperiden hydrochloride] on rat VMAT2-His (Rattus norvegicus, UniProt Q01827)?
Result: 0.2
